tested on: 786-O; assay: Euclidean distance of Cell Painting phenotypic profile (signed KS, 77 features) to DMSO centroid (dimensionless distance); 5 or 10 uM (library dependent); higher = stronger phenotypic change vs DMSO (phenoactivity); conditions: 48 h
Recorded Euclidean distance, one value per entry.

Solved cases (3 shown):
• Cc1c(Cl)cccc1Nc1ncccc1C(=O)O = 0.846
• O=C1[C@H](Cc2ccc(O)cc2)N2C(=O)CCN(C(=O)NCc3ccccc3)[C@H]2CN1Cc1cccc2ccccc12 = 2.87
• CC1(C)CNc2cc(NC(=O)c3cccnc3NCc3ccncc3)ccc21 [Motesanib Diphosphate (AMG-706)] = 1.29

Now turn to the next compound.
Ask: What measured Euclidean distance is associated with C[C@H]1COC2=C1C(=O)C(=O)c1c2ccc2c1CCCC2(C)C on 786-O?
Reply: 1.53
